Taken from patent US20180099931A1.

- system_tested: F508delCFTR (Homo sapiens, UniProt P13569, DEL508-508)
- Construct: expressed in transfected cells; host or cells: CFBE41o- human lung-derived epithelial cells (CFBE4lo-F508delCFTR-HRP), doxycycline-inducible
- Sequence (P13569 with tags, fused parts or gaps DEL508-508): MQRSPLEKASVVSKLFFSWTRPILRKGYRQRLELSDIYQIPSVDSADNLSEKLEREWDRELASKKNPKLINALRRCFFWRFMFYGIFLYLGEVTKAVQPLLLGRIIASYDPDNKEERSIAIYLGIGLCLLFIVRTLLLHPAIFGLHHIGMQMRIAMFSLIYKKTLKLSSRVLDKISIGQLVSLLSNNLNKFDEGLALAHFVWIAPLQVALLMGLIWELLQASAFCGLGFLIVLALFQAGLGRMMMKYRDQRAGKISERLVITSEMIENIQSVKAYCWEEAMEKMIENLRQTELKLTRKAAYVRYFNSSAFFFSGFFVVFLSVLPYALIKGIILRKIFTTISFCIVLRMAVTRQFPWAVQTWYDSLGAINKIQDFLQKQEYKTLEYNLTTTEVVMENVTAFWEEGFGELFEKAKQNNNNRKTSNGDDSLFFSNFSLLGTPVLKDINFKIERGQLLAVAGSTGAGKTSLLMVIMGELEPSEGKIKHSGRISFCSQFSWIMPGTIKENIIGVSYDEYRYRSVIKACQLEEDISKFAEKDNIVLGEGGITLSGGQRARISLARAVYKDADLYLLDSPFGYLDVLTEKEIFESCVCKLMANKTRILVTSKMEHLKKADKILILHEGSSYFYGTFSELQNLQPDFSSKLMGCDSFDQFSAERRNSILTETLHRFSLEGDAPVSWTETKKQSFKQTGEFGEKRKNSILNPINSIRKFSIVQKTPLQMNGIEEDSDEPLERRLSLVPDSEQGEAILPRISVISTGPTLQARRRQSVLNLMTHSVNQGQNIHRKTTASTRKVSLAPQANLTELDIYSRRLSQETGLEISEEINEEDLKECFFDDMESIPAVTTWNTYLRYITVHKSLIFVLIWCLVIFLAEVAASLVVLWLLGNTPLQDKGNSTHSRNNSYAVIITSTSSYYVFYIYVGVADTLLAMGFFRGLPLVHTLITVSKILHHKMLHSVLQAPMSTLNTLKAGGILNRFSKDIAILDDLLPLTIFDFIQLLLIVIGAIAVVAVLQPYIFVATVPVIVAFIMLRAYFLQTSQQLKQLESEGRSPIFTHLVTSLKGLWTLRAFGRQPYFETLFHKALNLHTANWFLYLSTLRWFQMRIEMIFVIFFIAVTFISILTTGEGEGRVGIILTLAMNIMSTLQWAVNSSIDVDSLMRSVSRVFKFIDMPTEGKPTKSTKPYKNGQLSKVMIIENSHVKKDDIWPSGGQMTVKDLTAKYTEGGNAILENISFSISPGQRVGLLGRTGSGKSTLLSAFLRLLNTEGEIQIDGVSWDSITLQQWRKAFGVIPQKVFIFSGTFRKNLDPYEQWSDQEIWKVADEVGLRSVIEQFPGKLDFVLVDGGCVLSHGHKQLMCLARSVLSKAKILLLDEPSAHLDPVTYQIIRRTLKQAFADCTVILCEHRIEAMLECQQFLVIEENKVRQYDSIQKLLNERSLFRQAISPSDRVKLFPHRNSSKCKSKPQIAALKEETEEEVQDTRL
- test_method_notes: Cell Surface Expression-Horse Radish Peroxidase (CSE-HRP) Assay
- Type: cell-based
- test_settings: test compound without co-corrector; read-out: EC50 (without co-corrector)
pEC50: −log10 of the molar value.

- molecule: "COc1ccc(C(C)(C)C)cc1CN[C@H]1[C@H](C(C)(C)C)[C@@H](C(=O)O)N(C(=O)OC(C)C)[C@H]1c1ccccc1"
  pEC50: "5.00 to 6.00"
- molecule: "COc1ccc(-c2cnn(C)c2)cc1CN[C@H]1[C@H](C(C)(C)C)[C@@H](C(=O)O)N(C(=O)C2CCCCC2)[C@H]1c1ccccc1"
  pEC50: "5.00 to 6.00"
- molecule: "COc1ccccc1[C@@H]1[C@H](NCc2cccc3c2OC(F)(F)O3)[C@@H](C(C)(C)C)[C@H](C(=O)O)N1C(=O)C1CCCCC1 (racemic)"
  pEC50: "5.00 to 6.00"

* * *

- system_tested: F508delCFTR (Homo sapiens, UniProt P13569, DEL508-508)
- Construct: expressed in transfected cells; host or cells: CFBE41o- human lung-derived epithelial cells (CFBE4lo-F508delCFTR-HRP), doxycycline-inducible
- test_method_notes: Cell Surface Expression-Horse Radish Peroxidase (CSE-HRP) Assay;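 on Maximum % activity (without co-corrector): percent of the 2 µM on-plate positive control corrector response above DMSO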
- Format: cell-based
- test_settings: test compound without co-corrector; maximum at any tested concentration, normalized to on-plate positive control; read-out: Maximum % activity (without co-corrector)

- molecule: "COc1ccc(C(C)(C)C)cc1CN[C@H]1[C@H](C(C)(C)C)[C@@H](C(=O)O)N(C(=O)C2CCCC(C(F)(F)F)C2)[C@H]1c1cccnc1N(C)C (stereo partly drawn)"
  Emax: "> 200%"
- molecule: "Cc1cc(C(F)(F)F)cc(N[C@@H]2[C@@H](C(C)(C)C)[C@H](C(=O)O)N(C(=O)[C@H]3C[C@H]4CC[C@@H]3C4)[C@@H]2c2ccccc2)n1 (racemic)"
  Emax: "< 100%"
- molecule: "COc1ccc(C(C)(C)C)cc1CN[C@H]1[C@H](C(C)(C)C)[C@@H](C(=O)O)N(C(=O)OCC(C)(C)C)[C@H]1c1ccccc1"
  Emax: "> 200%"
- molecule: "CC(C)(C)[C@H]1[C@H](NCc2ccc(F)cc2C(F)(F)F)[C@H](c2ccccc2)N(C(=O)C2CCCCC2)[C@@H]1C(=O)O"
  Emax: "< 100%"
- molecule: "COc1ccc(C(C)(C)C)cc1CN[C@H]1[C@H](C(C)(C)C)[C@@H](C(=O)O)N(C(=O)[C@]2(C)COc3cc4c(cc32)OC(F)(F)O4)[C@H]1c1cccnc1OC"
  Emax: "< 100%"
- molecule: "COc1ncc(C(F)(F)F)cc1N[C@H]1[C@H](C(C)(C)C)[C@@H](C(=O)O)N(C(=O)[C@H]2CCCCO2)[C@H]1c1cccnc1N(C)C"
  Emax: "< 100%"
- molecule: "CC(C)(C)[C@H]1[C@H](Nc2cc3ccccc3cn2)[C@H](c2ccccc2)N(C(=O)C2CCCCC2)[C@@H]1C(=O)O"
  Emax: "< 100%"
- molecule: "COc1ccc(C(C)(C)C)cc1CN[C@H]1[C@H](C(C)(C)C)[C@@H](C(=O)O)N(C(=O)CC2CCCCC2)[C@H]1c1ccccc1"
  Emax: "> 200%"
- molecule: "CC(C)(C)[C@H]1[C@H](NCC2(c3ccc4c(c3)OC(F)(F)O4)CC2)[C@H](c2ccccc2)N(C(=O)C2CCCCC2)[C@@H]1C(=O)O"
  Emax: "100 to 200%"
- molecule: "COc1ccc(C(C)(C)C)cc1CN[C@H]1[C@H](C(C)(C)C)[C@@H](C(=O)O)N(C(=O)[C@@H]2CCC[C@@H](OC(F)(F)F)C2)[C@H]1c1cccnc1OC"
  Emax: "> 200%"
- molecule: "COc1cc(C(F)(F)F)ccc1CN[C@H]1[C@H](C(C)(C)C)[C@@H](C(=O)O)N(C(=O)[C@@H]2CCC[C@H](O)C2)[C@H]1c1ccccc1"
  Emax: "100 to 200%"
- molecule: "COc1ccc(C(C)(C)C)cc1CN[C@H]1[C@H](C(C)(C)C)[C@@H](C(=O)O)N(C(=O)[C@@H]2[C@H](C(F)(F)F)[C@@H]3CC[C@H]2O3)[C@H]1c1cccnc1N(C)C (relative stereo)"
  Emax: "> 200%"
